PROCEDURE SUMMARY: Clearance in Sprague-Dawley rat at 10 mg/kg, po and 2 mg/kg, iv
Assay type: ADME, organism-based
RECORDED CONDITIONS: in vivo

>  <TEST SMILES>
N#Cc1ccc(N2CCN(Cc3cc(C(=O)O)c(=O)n4ccccc34)CC2)cc1

>  <clearance>
10.8 mL/min/kg

$$$$

###

PROCEDURE SUMMARY: Half life in Sprague-Dawley rat at 10 mg/kg, po and 2 mg/kg, iv
Type: ADME, organism-based
RECORDED CONDITIONS: in vivo
MEASURE NAME: half-life (h)

>  <TEST SMILES>
N#Cc1ccc(N2CCN(Cc3cc(C(=O)O)c(=O)n4ccccc34)CC2)cc1

>  <REPORTED RESULT>
6.4

$$$$
